Experiment: Plasma concentration after oral administration to rats, determined by UT7/EPO-mpl proliferation bioassay
Assay type: in vivo
Settings: rat, male Sprague-Dawley rats, 10 mg/kg, between 0.5 and 2 hours after administration, read-out: Cmax (maximum concentration in blood)
measure: Cmax (ng/mL)
Numbers only, in ng/mL.

>>> print(df.to_string())
                                   compound  measure  observed_measurement
0  CC(=NNC(=O)c1ccc(C(=O)NCc2ccccn2)s1)c1nn(C)c(-c2ccc(C(F)(F)F)cc2)c1O.[K] [Synthetic Example 2]     Cmax                  1200

Okay, next one:
**Query** May I ask what Cmax has been recorded for CCN(CC)C(=O)c1ccc(C(=O)NN=C(C)c2nn(C)c(-c3ccc(C(F)(F)F)cc3)c2O)s1.[K] [Synthetic Example 1] ?
**Result** 760
